Assign GI50 to each entry below.
Target: Ba/F3 ABL (Homo sapiens, UniProt P00519)
Construct: candidates: BCR or TEL (ETV6)
Sequence (P00519 whole entry, change not shown): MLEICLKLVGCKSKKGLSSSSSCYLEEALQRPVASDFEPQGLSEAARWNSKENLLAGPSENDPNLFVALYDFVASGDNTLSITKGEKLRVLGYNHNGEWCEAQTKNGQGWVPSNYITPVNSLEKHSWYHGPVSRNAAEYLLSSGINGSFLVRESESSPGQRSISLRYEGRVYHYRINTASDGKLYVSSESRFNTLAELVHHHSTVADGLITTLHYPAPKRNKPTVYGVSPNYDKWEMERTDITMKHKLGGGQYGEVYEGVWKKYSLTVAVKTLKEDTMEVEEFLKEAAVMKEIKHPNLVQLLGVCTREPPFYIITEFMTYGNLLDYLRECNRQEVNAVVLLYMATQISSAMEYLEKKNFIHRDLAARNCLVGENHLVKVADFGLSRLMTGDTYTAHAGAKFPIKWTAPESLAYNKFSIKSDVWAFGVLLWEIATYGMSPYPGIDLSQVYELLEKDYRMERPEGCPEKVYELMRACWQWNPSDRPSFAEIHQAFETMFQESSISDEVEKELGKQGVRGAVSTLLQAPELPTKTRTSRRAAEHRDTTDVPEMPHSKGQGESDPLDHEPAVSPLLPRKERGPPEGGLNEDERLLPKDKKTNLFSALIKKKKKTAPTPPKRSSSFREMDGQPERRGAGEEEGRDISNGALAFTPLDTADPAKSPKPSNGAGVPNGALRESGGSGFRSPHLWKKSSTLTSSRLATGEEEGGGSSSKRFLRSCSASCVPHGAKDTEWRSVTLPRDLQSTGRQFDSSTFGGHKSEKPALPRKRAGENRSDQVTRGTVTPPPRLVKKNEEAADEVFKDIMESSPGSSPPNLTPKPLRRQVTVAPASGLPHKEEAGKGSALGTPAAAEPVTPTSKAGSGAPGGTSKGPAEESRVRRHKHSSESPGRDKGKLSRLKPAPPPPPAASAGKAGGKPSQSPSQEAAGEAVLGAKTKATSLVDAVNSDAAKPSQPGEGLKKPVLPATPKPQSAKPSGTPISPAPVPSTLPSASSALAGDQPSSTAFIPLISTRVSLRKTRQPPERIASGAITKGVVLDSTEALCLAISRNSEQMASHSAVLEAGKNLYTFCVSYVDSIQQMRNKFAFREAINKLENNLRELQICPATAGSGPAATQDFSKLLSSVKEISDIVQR
Experiment: CellTiter-Glo cell proliferation, Ba/F3 ABL
Type: cell-based, murine
Conditions: 72 hours; read-out: Ba/F3 IC50 ABL
Give the quantity in µM, number only.

// query Which GI50 is listed for C=CC(=O)Nc1ccc(CNc2nc(Nc3ccc(N4CCOCC4)c(F)c3)ncc2Cl)cc1 ?
// result 2.52

// query Which GI50 is listed for C=CC(=O)Nc1ccc(CN2C(=O)N(C)Cc3cnc(Nc4ccc(N5CCN(C)CC5)cc4)nc32)cc1 ?
// result 8.84

// query Which GI50 is listed for C=CC(=O)Nc1ccc(CNc2nc(Nc3ccc(N4CCN(C)CC4)c(F)c3)ncc2Cl)cc1 ?
// result 0.453

// query Which GI50 is listed for C=CC(=O)Nc1ccc(CN2C(=O)NCc3cnc(Nc4ccc(N5CCN(C)CC5)cc4)nc32)cc1 ?
// result 29.2

// query Which GI50 is listed for C=CC(=O)Nc1cccc(CNc2cc(Nc3ccc(N4CCN(C)CC4)cc3OC)ncn2)c1 ?
// result 4.55

====

Assign log10 GI50 to each entry below.
Target: Ba/F3 TYK2 (Homo sapiens, UniProt P29597)
Construct: The likeliest candidate is TEL (ETV6) N-terminal oligomerisation domain fused to the TYK2 kinase domain; BCR, another partner, or no partner are also possible
Sequence (P29597 whole entry, change not shown, the tested form may be a part): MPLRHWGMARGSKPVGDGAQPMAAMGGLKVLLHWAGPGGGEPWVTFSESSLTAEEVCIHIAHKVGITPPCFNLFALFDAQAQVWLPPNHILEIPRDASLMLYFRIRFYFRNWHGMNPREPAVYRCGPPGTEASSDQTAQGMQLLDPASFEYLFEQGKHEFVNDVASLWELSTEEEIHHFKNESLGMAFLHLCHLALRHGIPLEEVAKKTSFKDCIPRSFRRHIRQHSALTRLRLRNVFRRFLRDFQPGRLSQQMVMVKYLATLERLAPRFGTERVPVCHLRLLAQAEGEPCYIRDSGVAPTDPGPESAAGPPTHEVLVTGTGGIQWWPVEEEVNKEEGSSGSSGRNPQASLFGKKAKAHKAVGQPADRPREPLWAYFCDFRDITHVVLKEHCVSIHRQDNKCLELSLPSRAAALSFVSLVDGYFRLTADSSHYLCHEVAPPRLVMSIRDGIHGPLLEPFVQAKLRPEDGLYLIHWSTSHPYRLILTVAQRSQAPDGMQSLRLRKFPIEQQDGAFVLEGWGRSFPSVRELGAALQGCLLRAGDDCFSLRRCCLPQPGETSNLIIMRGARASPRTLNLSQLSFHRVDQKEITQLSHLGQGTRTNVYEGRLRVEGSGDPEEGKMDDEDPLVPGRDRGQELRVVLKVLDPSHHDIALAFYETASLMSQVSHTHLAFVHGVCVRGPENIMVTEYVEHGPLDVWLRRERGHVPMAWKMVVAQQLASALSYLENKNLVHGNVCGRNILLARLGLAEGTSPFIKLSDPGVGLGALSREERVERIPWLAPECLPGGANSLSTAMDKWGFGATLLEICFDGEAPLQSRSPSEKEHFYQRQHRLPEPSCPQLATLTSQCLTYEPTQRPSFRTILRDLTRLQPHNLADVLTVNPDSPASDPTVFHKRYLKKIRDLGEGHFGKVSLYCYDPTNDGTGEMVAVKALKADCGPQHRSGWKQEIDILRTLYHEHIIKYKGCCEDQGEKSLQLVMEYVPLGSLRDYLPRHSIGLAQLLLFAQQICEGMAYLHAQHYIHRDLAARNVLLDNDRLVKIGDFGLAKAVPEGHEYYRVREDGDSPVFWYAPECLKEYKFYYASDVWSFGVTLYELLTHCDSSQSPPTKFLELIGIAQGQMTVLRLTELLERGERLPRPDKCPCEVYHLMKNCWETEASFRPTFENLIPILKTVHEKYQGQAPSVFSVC
Test: CellTiter-Glo cell proliferation, Ba/F3 TYK2
Format: cell-based, murine
Settings: 72 hours; read-out: Ba/F3 IC50 TYK2
Parameter value (number): base-10 log of GI50 in µM.

// query Which log10 GI50 is listed for C=CC(=O)Nc1ccc(CN2C(=O)N(C)Cc3cnc(Nc4ccc(N5CCN(C)CC5)cc4)nc32)cc1 ?
// result 1.00

// query Which log10 GI50 is listed for C=CC(=O)Nc1ccc(CNc2nc(Nc3ccc(N4CCN(C)CC4)cc3)ncc2Cl)cc1 ?
// result -0.84

// query Which log10 GI50 is listed for C=CC(=O)Nc1cccc(CNc2nc(Nc3cnn(CCOCCOCCOCCNC(=O)CCCC[C@@H]4SC[C@@H]5NC(=O)N[C@@H]54)c3)ncc2Cl)c1 ?
// result 1.19

// query Which log10 GI50 is listed for C=CC(=O)Nc1ccc(CNc2nc(Nc3ccc(N4CCN(C)CC4)c(F)c3)ncc2Cl)cc1 ?
// result -0.55

// query Which log10 GI50 is listed for C=CC(=O)Nc1cccc(CNc2cc(Nc3cnn(C)c3)ncn2)c1 ?
// result 1.89

====

Target: Ba/F3 JAK2 (Homo sapiens)
Construct: candidate: TEL (ETV6) N-terminal oligomerisation domain
Sequence (O60674 whole entry, change not shown, the tested form may be a part): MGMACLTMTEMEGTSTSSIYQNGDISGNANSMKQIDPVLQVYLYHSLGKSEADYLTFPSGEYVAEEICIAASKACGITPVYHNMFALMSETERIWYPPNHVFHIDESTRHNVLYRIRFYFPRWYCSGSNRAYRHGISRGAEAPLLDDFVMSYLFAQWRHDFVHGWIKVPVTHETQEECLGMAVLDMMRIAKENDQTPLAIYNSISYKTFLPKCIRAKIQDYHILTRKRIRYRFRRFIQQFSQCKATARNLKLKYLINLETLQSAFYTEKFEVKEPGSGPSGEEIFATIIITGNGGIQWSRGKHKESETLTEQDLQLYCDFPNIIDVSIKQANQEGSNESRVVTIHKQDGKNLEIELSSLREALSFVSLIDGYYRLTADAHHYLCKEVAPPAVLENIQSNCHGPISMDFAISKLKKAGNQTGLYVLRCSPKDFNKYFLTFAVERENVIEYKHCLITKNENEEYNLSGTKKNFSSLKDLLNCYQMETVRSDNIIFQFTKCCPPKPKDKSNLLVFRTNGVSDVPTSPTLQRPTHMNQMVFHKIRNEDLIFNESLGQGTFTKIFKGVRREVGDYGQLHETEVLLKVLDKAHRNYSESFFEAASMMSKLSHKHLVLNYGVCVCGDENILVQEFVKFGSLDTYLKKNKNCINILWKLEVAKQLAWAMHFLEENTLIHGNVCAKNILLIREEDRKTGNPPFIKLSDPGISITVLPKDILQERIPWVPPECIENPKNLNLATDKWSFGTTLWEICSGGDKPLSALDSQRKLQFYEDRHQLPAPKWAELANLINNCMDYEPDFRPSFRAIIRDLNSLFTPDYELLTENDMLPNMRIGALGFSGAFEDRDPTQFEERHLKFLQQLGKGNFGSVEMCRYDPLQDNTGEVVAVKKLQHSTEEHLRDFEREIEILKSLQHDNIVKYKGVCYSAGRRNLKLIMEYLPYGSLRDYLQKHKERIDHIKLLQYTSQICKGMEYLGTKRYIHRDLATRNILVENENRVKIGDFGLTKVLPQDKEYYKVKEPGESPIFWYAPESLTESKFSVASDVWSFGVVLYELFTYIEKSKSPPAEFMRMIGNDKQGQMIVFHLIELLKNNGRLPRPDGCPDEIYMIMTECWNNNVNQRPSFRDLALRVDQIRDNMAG
Test: CellTiter-Glo cell proliferation, Ba/F3 JAK2
Type: cell-based, murine
Conditions: 72 hours; read-out: Ba/F3 IC50 JAK2
measured.parameter: GI50

// query Which GI50 is listed for C=CC(=O)Nc1cccc(CN2C(=O)N(C)Cc3cnc(Nc4cnn(C)c4)nc32)c1 ?
// result > 50 µM

// query Which GI50 is listed for C=CC(=O)Nc1cccc(CNc2nc(Nc3cc(F)c(C4CCOCC4)c(F)c3)ncc2Cl)c1 ?
// result > 50 µM

// query Which GI50 is listed for C=CC(=O)Nc1cccc(CNc2nc(Nc3cnn(CCOCCOCCOCCNC(=O)CCCC[C@@H]4SC[C@@H]5NC(=O)N[C@@H]54)c3)ncc2Cl)c1 ?
// result > 50 µM

Source of measurements: patent US10017477B2
